System: CH1
Assay: Growth inhibition of doxorubicin-resistant human CH1 cells after 96 hrs by sulforhodamine B assay
Type: functional
Details: CH1, 96 h
Below, each entry is listed alongside its reported log10 GI50.
The figures below represent log10 of GI50, where GI50 is stated in µM.

Use the examples below as a reference point.
>>> value_observed("CC[C@@H](Nc1nc(NCc2cccnc2)c2ncn(C(C)C)c2n1)C(C)O (mixture of isomers)")
0.72
>>> value_observed("CC[C@@H](Nc1nc(NCc2cccnc2)c2ncn(C(C)C)c2n1)C(O)C(C)(C)C (mixture of isomers)")
1.36
>>> value_observed("CC[C@H](Nc1nc(NCc2ccccc2)c2ncn(C(C)C)c2n1)C(O)C(C)(C)C (mixture of isomers)")
1.33
>>> value_observed("CC[C@@H](Nc1nc(NCc2cccnc2)c2ncn(C(C)C)c2n1)C(O)C(C)C (mixture of isomers)")
1.40
>>> value_observed("CC[C@H](Nc1nc(NCc2ccccc2)c2ncn(C(C)C)c2n1)C(C)O (mixture of isomers)")
0.11
>>> value_observed("CC[C@@H](Nc1nc(NCc2cccnc2)c2ncn(C(C)C)c2n1)C(C)(C)O")
1.32

Prompt line: Item CCC(O)[C@@H](CC)Nc1nc(NCc2ccccn2)c2ncn(C(C)C)c2n1 (mixture of isomers) has what recorded log10 GI50?
Response line: 1.41

Prompt line: Item CCC(O)[C@@H](CC)Nc1nc(NCc2cccnc2)c2ncn(C(C)C)c2n1 (mixture of isomers) has what recorded log10 GI50?
Response line: 1.16

Prompt line: Item CCC(O)[C@H](CC)Nc1nc(NCc2ccccn2)c2ncn(C(C)C)c2n1 (mixture of isomers) has what recorded log10 GI50?
Response line: 1.41

Prompt line: Item `CC[C@H](CO)Nc1nc(NCc2ccccc2)c2ncn(C(C)C)c2n1` has what recorded log10 GI50?
Response line: 0.73

Prompt line: Item `CC[C@H](CO)Nc1nc(NCc2cccnc2)c2ncn(C(C)C)c2n1` has what recorded log10 GI50?
Response line: 1.22

Prompt line: Item CC[C@@H](Nc1nc(NCc2ccccc2)c2ncn(C(C)C)c2n1)C(C)O (mixture of isomers) has what recorded log10 GI50?
Response line: 0.66

Prompt line: Item CC[C@@H](Nc1nc(NCc2ccccc2)c2ncn(C(C)C)c2n1)C(O)C(C)C (mixture of isomers) has what recorded log10 GI50?
Response line: 1.28

Prompt line: Item `CC[C@H](Nc1nc(NCc2cccnc2)c2ncn(C(C)C)c2n1)C(C)(C)O` has what recorded log10 GI50?
Response line: 0.83

Prompt line: Item `CC[C@@H](Nc1nc(NCc2ccccc2)c2ncn(C(C)C)c2n1)C(C)(C)O` has what recorded log10 GI50?
Response line: 1.29

Prompt line: Item CC[C@@H](Nc1nc(NCc2ccccc2)c2ncn(C(C)C)c2n1)C(O)C(C)(C)C (mixture of isomers) has what recorded log10 GI50?
Response line: 1.28

Prompt line: Item `CC[C@H](Nc1nc(NCc2ccccn2)c2ncn(C(C)C)c2n1)C(C)(C)O` has what recorded log10 GI50?
Response line: 1.41

Prompt line: Item `CC[C@H](CO)Nc1nc(NCc2ccccn2)c2ncn(C(C)C)c2n1` has what recorded log10 GI50?
Response line: 1.36

Prompt line: Item CC[C@H](Nc1nc(NCc2cccnc2)c2ncn(C(C)C)c2n1)C(O)C(C)(C)C (mixture of isomers) has what recorded log10 GI50?
Response line: 1.27

Prompt line: Item CCC(O)[C@@H](CC)Nc1nc(NCc2ccccc2)c2ncn(C(C)C)c2n1 (mixture of isomers) has what recorded log10 GI50?
Response line: 1.26

Prompt line: Item CC[C@H](Nc1nc(NCc2ccccn2)c2ncn(C(C)C)c2n1)C(O)C(C)(C)C (mixture of isomers) has what recorded log10 GI50?
Response line: 1.67

###

Below, each entry is listed alongside its reported IC50.
Molecular target: Cyclin-dependent kinase 1/cyclin B1 (Homo sapiens, UniProt P06493)
Sequence (P06493 whole entry): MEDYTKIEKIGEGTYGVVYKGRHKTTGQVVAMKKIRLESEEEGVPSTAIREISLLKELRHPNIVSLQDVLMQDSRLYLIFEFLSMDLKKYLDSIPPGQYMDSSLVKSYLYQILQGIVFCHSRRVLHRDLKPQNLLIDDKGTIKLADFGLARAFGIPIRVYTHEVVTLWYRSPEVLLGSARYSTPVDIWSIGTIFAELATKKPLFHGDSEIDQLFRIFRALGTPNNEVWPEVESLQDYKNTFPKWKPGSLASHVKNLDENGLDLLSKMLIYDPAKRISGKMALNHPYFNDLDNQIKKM
Sequence (P14635 whole entry, further chain): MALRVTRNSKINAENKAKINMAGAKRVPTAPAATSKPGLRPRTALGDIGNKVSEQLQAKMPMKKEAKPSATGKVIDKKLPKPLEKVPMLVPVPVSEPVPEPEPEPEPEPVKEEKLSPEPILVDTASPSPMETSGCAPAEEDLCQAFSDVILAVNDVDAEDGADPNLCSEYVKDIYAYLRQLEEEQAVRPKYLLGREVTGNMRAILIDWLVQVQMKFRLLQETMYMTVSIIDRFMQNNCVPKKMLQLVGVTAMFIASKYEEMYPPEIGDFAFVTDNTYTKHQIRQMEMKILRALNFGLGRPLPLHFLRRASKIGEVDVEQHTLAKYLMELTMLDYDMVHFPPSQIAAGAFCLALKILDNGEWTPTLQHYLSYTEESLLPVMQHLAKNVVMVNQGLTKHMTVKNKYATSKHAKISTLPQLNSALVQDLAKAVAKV
Assay: Inhibition of CDK1/cyclin B
Express the result in µM but write the number alone.

Use the examples below as a reference point.
>>> value_observed("CCC(O)[C@@H](CC)Nc1nc(NCc2cccnc2)c2ncn(C(C)C)c2n1 (mixture of isomers)")
12
>>> value_observed("CC[C@H](Nc1nc(NCc2ccccn2)c2ncn(C(C)C)c2n1)C(C)O (mixture of isomers)")
8.9

Prompt line: Item CCC(O)[C@H](CC)Nc1nc(NCc2cccnc2)c2ncn(C(C)C)c2n1 (mixture of isomers) has what recorded IC50?
Response line: 13

###

Target: Cyclin-dependent kinase 7/ cyclin H (Homo sapiens)
Sequence (P51946 whole entry): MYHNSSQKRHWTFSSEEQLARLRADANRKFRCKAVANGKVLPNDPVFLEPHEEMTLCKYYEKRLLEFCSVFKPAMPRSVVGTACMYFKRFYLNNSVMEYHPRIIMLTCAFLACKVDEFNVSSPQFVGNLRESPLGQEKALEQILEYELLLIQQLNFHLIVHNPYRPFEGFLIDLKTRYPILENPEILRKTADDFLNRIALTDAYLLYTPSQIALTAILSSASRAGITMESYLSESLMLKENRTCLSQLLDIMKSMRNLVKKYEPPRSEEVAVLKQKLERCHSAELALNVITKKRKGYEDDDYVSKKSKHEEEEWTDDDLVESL
Sequence (P50613 whole entry): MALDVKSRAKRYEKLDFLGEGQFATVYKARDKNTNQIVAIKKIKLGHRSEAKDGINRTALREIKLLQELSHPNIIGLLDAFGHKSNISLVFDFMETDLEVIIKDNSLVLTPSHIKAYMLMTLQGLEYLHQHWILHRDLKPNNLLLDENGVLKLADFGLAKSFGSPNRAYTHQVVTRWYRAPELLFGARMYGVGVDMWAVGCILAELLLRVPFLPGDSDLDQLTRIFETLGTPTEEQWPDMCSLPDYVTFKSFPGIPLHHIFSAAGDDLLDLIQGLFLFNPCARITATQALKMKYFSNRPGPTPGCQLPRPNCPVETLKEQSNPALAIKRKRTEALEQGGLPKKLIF
Test: Inhibition of CDK7/cyclin H
Format: protein-complex assay
endpoint label: pIC50
Scale: negative log10 of molar concentration, which is what pIC50 denotes.

>>> value_observed("CC[C@@H](Nc1nc(NCc2ccccc2)c2ncn(C(C)C)c2n1)C(C)O (mixture of isomers)")
6.41
>>> value_observed("CC[C@@H](Nc1nc(NCc2cccnc2)c2ncn(C(C)C)c2n1)C(O)C(C)C (mixture of isomers)")
5.66
>>> value_observed("CC[C@@H](Nc1nc(NCc2ccccn2)c2ncn(C(C)C)c2n1)C(C)O (mixture of isomers)")
6.26

Prompt line: I'm curious: which pIC50 was measured for CC[C@@H](Nc1nc(NCc2cccnc2)c2ncn(C(C)C)c2n1)C(O)C(C)(C)C (mixture of isomers) tested on Cyclin-dependent kinase 7/ cyclin H (Homo sapiens)?
Response line: 5.80

Prompt line: I'm curious: which pIC50 was measured for CC[C@H](Nc1nc(NCc2cccnc2)c2ncn(C(C)C)c2n1)C(O)C(C)(C)C (mixture of isomers) tested on Cyclin-dependent kinase 7/ cyclin H (Homo sapiens)?
Response line: 5.46

Prompt line: I'm curious: which pIC50 was measured for CC[C@H](Nc1nc(NCc2ccccc2)c2ncn(C(C)C)c2n1)C(C)O (mixture of isomers) tested on Cyclin-dependent kinase 7/ cyclin H (Homo sapiens)?
Response line: 6.16

Prompt line: I'm curious: which pIC50 was measured for CC[C@H](Nc1nc(NCc2cccnc2)c2ncn(C(C)C)c2n1)C(O)C(C)C (mixture of isomers) tested on Cyclin-dependent kinase 7/ cyclin H (Homo sapiens)?
Response line: 5.46

Prompt line: I'm curious: which pIC50 was measured for `CC[C@@H](Nc1nc(NCc2cccnc2)c2ncn(C(C)C)c2n1)C(C)(C)O` tested on Cyclin-dependent kinase 7/ cyclin H (Homo sapiens)?
Response line: 5.51

Prompt line: I'm curious: which pIC50 was measured for CCC(O)[C@H](CC)Nc1nc(NCc2ccccc2)c2ncn(C(C)C)c2n1 (mixture of isomers) tested on Cyclin-dependent kinase 7/ cyclin H (Homo sapiens)?
Response line: 5.96

###

Assay: Metabolic stability in mouse liver microsomes assessed as compound metabolized at 10 uM after 30 mins by LC-MS analysis
Format: ADME, Microsome
Settings: read-out: Activity
endpoint label: metabolised at 0.5 h, 10 µM (%)
Express the result in % but write the number alone.

>>> value_observed("CC[C@@H](Nc1nc(NCc2ccccn2)c2ncn(C(C)C)c2n1)C(C)O (mixture of isomers)")
97
>>> value_observed("CC[C@H](Nc1nc(NCc2ccccn2)c2ncn(C(C)C)c2n1)C(O)C(C)(C)C (mixture of isomers)")
97
>>> value_observed("CC[C@@H](Nc1nc(NCc2ccccc2)c2ncn(C(C)C)c2n1)C(O)C(C)C (mixture of isomers)")
83

Prompt line: Item CCC(O)[C@H](CC)Nc1nc(NCc2ccccc2)c2ncn(C(C)C)c2n1 (mixture of isomers) has what recorded metabolised at 0.5 h, 10 µM?
Response line: 67

Prompt line: Item CC[C@H](Nc1nc(NCc2ccccc2)c2ncn(C(C)C)c2n1)C(O)C(C)C (mixture of isomers) has what recorded metabolised at 0.5 h, 10 µM?
Response line: 76

Prompt line: Item CC[C@H](Nc1nc(NCc2cccnc2)c2ncn(C(C)C)c2n1)C(C)O (mixture of isomers) has what recorded metabolised at 0.5 h, 10 µM?
Response line: 33

Prompt line: Item CC[C@H](Nc1nc(NCc2ccccn2)c2ncn(C(C)C)c2n1)C(C)O (mixture of isomers) has what recorded metabolised at 0.5 h, 10 µM?
Response line: 67

###

Below, each entry is listed alongside its reported GI50.
Test system: KM12
Experiment: Growth inhibition of human KM12 cells after 96 hrs by sulforhodamine B assay
Format: functional
Conditions: KM12, 96 h

Use the examples below as a reference point.
>>> value_observed("CCC(O)[C@H](CC)Nc1nc(NCc2ccccn2)c2ncn(C(C)C)c2n1 (mixture of isomers)")
"> 50 µM"
>>> value_observed("CC[C@@H](Nc1nc(NCc2ccccn2)c2ncn(C(C)C)c2n1)C(C)O (mixture of isomers)")
"37 µM"
>>> value_observed("CC[C@H](Nc1nc(NCc2cccnc2)c2ncn(C(C)C)c2n1)C(O)C(C)(C)C (mixture of isomers)")
"19 µM"
>>> value_observed("CC[C@@H](Nc1nc(NCc2ccccn2)c2ncn(C(C)C)c2n1)C(O)C(C)C (mixture of isomers)")
"> 50 µM"
>>> value_observed("CC[C@@H](Nc1nc(NCc2cccnc2)c2ncn(C(C)C)c2n1)C(C)O (mixture of isomers)")
"4.7 µM"

Prompt line: Item CC[C@H](Nc1nc(NCc2ccccn2)c2ncn(C(C)C)c2n1)C(C)O (mixture of isomers) has what recorded GI50?
Response line: 23 µM
